test: Plasma pharmacokinetics of Rc in rats after repeated iv injection; format: in vivo; details: rat plasma, Rc 3 mg/kg/day iv for 5 days

compound: CC(C)=CCC[C@](C)(O[C@@H]1O[C@H](CO[C@@H]2O[C@@H](CO)[C@H](O)[C@H]2O)[C@@H](O)[C@H](O)[C@H]1O)[C@H]1CC[C@]2(C)[C@@H]1[C@H](O)C[C@@H]1[C@@]3(C)CC[C@H](O[C@@H]4O[C@H](CO)[C@@H](O)[C@H](O)[C@H]4O[C@@H]4O[C@H](CO)[C@@H](O)[C@H](O)[C@H]4O)C(C)(C)[C@@H]3CC[C@]12C [Rc, ginsenoside Rc]
half-life, h: 27.5
